System: KB human mucous-membrane carcinoma
Assay: inhibition of colony formation in soft agar (colony assay), KB
Assay type: cell-based
Conditions: concentration giving 90% inhibition of colony formation, determined by graph; 8 days incubation
Exercise: state measured Cytotoxicity in vitro EC90 KB for each of the compounds provided.
Be sure to follow the number with its unit.

Look up Cytotoxicity in vitro EC90 KB for this compound: CCCCCCCCCCCCCCNC(=O)C1CSCN1 (stereo not shown)
3.1 µg/mL

Look at this compound and give its reported Cytotoxicity in vitro EC90 KB. CCCCCCCCCCCCCCCCNC(=O)C1CSCN1 (stereo not shown)
3.1 µg/mL

Reported Cytotoxicity in vitro EC90 KB, compound CCCCCCCCCCCCCCCCCCNC(=O)C(CCCCN)NC(=O)C(N)CCCCN (stereo not shown) : ____
0.3 µg/mL

# query: Cytotoxicity in vitro EC90 KB of entry CCCCCCCCCCCCCCCCCCNC(=O)C(N)CCCNC(=O)C(N)CCCN.Cl.Cl.Cl [D-20 989, H--ORN(ORN)--NHC18 H37.3HCL]
1.3 µg/mL

I have this compound here, CCCCCCCCCCCCCCCCCCNC(=O)[C@H](N)CCCCNC(=O)[C@H](N)CCCCN.Cl.Cl.Cl [D-22 628, H--D--LYS(D--LYS)--NHC18 H37.3HCL] , and I need its recorded Cytotoxicity in vitro EC90 KB.
1.1 µg/mL

// Cytotoxicity in vitro EC90 KB lookup, key: CCCCCCCCCCCCCCCCCCNC(=O)C(N)CCCCNC(=O)C(N)CCCCN.Cl.Cl.Cl [D-21 621, H--LYS(LYS)--NHC18 H37.3HCl]
1.4 µg/mL

For the compound Br.Br.Br.CCCCCCCCCCCCCCCCCCNC(=O)C(N)CCCCNC(=O)C(N)CCCCN (stereo not shown) , what Cytotoxicity in vitro EC90 KB is on record?
0.8 µg/mL
